target: Induced myeloid leukemia cell differentiation protein Mcl-1 (Homo sapiens, UniProt Q07820); test: Inhibition of FITC-labeled Bak-BH3 peptide binding to MCL1 (172 to 371 residues) (unknown origin) by fluorescence polarization competition assay
Sequence (Q07820 whole entry, the tested form may be a part): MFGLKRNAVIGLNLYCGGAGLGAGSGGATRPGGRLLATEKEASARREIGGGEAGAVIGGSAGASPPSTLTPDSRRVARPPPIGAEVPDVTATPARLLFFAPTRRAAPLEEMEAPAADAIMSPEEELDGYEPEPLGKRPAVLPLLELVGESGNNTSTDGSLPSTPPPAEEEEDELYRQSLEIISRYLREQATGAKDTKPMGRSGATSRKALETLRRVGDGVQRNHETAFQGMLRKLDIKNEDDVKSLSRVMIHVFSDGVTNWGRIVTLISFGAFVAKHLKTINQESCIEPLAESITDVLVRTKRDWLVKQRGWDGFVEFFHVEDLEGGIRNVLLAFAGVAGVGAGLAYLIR
pKi: −log10 of the molar value.
endpoint: pKi

Would you please look over these solved cases?
# compound_structure, observed_result
records = [
    ("CC(C)C[C@@H](C(=O)O)N1C(=O)S/C(=C\\c2ccc(Br)cc2)C1=O", 5.06),
    ("CC(C)C[C@@H](C(=O)O)N1C(=O)S/C(=C\\c2ccc(C(C)(C)C)cc2)C1=O", 5.65),
]

[A] CC(C)C[C@@H](C(=O)O)N1C(=O)S/C(=C\c2ccc(Oc3ccccc3)cc2)C1=O
[B] CC(C)(C)c1ccc(/C=C2\SC(=O)N([C@@H](Cc3ccccc3)C(=O)O)C2=O)cc1
[C] Cc1cc(Oc2ccc(/C=C3\SC(=O)N(CC(=O)O)C3=O)cc2)cc(C)c1Cl
Query :: Sort the 3 molecules by pKi; largest first, smallest last. Output spec: a listing of the labels in the requested order.
Result :: B, C, A

----------
biological target: Induced myeloid leukemia cell differentiation protein Mcl-1 (Homo sapiens, UniProt Q07820); experiment: Inhibition of FITC-labeled Bak-BH3 peptide binding to MCL1 (172 to 371 residues) (unknown origin) by fluorescence polarization competition assay
pKi: −log10 of the molar value.
endpoint: pKi

Would you please look over these solved cases?
# compound_structure, observed_result
records = [
    ("CC(C)C[C@@H](C(=O)O)N1C(=O)S/C(=C\\c2ccccc2)C1=O", "< 4.00"),
    ("Cc1cc(Oc2ccc(/C=C3\\SC(=O)N([C@@H](CC(C)C)C(N)=O)C3=O)cc2)cc(C)c1Cl", "< 4.00"),
]

With those in mind, consider the next compound.
Query :: Query for Induced myeloid leukemia cell differentiation protein Mcl-1 (Homo sapiens, UniProt Q07820): what pKi does the record show for `Cc1cc(Oc2ccc(/C=C3\SC(=O)NC3=O)cc2)cc(C)c1Cl` ?
Result :: < 4.00
